- target.or.system: T1, P7mS
- T1 chain: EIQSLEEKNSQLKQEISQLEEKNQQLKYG
- protocol: two-hybrid library CC1;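 also: natural log of median RNA to DNA barcode read ratio; higher means stronger binding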
- condition.label: mean of both orientations
// reported interaction score for each item listed
# print the numeric value only

Sample records with interaction score:
[[record]]
binder = "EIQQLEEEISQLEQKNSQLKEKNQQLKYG [P3mS]"
quantity = "interaction score"
numeric_result = -2.96

[[record]]
binder = "ENARLEEKIRQLKQKNSQLKEEIQQLEYGC [P5SC2]"
quantity = "interaction score"
numeric_result = -2.77

[[record]]
binder = "ENSQLEEKISQLKQKNSQLKEEIQQLEYG [P5mS]"
quantity = "interaction score"
numeric_result = -2.67

[[record]]
binder = "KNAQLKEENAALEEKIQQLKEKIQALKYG [P10]"
quantity = "interaction score"
numeric_result = -2.22

[[record]]
binder = "SPEDEIQALEEKNAQLKQEIAALEEKNQALKYG [P7]"
quantity = "interaction score"
numeric_result = -2.52

[[record]]
binder = "SPEDKNAALKEEIQALEEENQALEEKIAQLKYG [P6]"
quantity = "interaction score"
numeric_result = -2.6


Now look at this entry.
Please supply the value of reported interaction score for the item SPEDENAALEEKIAQLKQKNAALKEEIQALEYG [P5]
-2.8
